biological target: human SLC6A19 and TMEM27 (Homo sapiens, UniProt Q695T7); construct: expressed in transfected cells; assay: Radiolabelled (3H) leucine uptake in CHO cells with doxycycline-inducible expression of human SLC6A19 and TMEM27 (Example B-1); type: cell-based; conditions: CHO cells with doxycycline-inducible expression of human SLC6A19 and TMEM27, read-out: SLC6A19_Radioligand Uptake Assay IC50
Sequence (Q695T7 whole entry): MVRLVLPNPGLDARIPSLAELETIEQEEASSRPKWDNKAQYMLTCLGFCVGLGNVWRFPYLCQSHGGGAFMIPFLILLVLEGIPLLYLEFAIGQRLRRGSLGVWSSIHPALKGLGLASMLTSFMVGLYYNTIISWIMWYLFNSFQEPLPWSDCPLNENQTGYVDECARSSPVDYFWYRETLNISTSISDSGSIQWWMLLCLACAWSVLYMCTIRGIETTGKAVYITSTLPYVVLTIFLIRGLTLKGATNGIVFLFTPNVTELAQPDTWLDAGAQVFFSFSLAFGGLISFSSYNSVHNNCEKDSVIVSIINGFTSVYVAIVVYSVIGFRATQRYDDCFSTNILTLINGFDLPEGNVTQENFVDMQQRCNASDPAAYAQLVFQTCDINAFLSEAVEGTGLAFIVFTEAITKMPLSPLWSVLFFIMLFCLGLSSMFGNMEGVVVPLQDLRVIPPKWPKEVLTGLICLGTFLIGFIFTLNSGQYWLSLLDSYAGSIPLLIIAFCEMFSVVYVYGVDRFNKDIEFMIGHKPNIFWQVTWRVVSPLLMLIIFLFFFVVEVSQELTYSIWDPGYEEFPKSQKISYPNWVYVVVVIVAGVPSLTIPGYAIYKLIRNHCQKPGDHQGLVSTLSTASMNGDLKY
Sequence (Q9HBJ8 15-222 partner): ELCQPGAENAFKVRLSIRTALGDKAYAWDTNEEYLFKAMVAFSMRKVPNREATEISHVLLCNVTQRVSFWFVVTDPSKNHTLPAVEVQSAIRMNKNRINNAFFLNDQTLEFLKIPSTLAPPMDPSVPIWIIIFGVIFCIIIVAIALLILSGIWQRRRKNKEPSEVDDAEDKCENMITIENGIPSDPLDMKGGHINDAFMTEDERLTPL
endpoint: IC50 (µM)

smilesrepr=CC[C@H](O)C(=O)NCc1cc2cc(Cl)c(OCc3cc(C)no3)cc2[nH]1 endpoint=IC50 boundtype== measurement=0.49
smilesrepr=COCCOCC(=O)NCc1cc2cc(Cl)c(OCc3cc(C)no3)cc2[nH]1 endpoint=IC50 boundtype=> measurement=9.06
smilesrepr=O=C(NCc1cc2cc(Cl)c(CCc3ccon3)cc2[nH]1)N1CCC1 endpoint=IC50 boundtype== measurement=0.24
smilesrepr=CC1(C(=O)NCc2cc3c(F)cc(OCc4cscn4)cc3[nH]2)CC1 endpoint=IC50 boundtype== measurement=0.06
smilesrepr=CC1(C(=O)NCc2cc3ccc(OCCC45CC(C4)C5)cc3[nH]2)CC1 endpoint=IC50 boundtype== measurement=9.88
smilesrepr=CC1(C(=O)NCc2cc3cc(Cl)c(OCc4cc5ccccc5[nH]4)cc3[nH]2)CC1 endpoint=IC50 boundtype=> measurement=6.44
smilesrepr=CNC(=O)NCc1cc2cc(Cl)c(OCc3cc(C)on3)cc2[nH]1 endpoint=IC50 boundtype== measurement=0.192
smilesrepr=CCC(=O)NCc1cc2cc(Cl)c(OCc3cscn3)cc2[nH]1 endpoint=IC50 boundtype== measurement=0.06
smilesrepr=O=C(NCc1cc2cc(Cl)c(OCc3cscn3)cc2[nH]1)[C@H]1CCCO1 endpoint=IC50 boundtype== measurement=0.142

====

biological target: human SLC6A19 and TMEM27 (Homo sapiens); construct: expressed in transfected cells; test: 13C6,15N-isoleucine uptake in CHO cells with doxycycline-inducible expression of human SLC6A19 and TMEM27, RapidFire mass spectrometry (Example B-2); assay type: cell-based; conditions: read-out: SLC6A19_RapidFire Uptake Assay IC50
pIC50: −log10 of the molar value.
Attribute: pIC50
endpoint: pIC50

molecule="O=C(NCc1cc2cc(Cl)c(OCc3cscn3)cc2[nH]1)C1(F)CC1 [Compound 231]" measurement=7.31
molecule="CC1(C(=O)NCc2cc3ccc(OCc4cccc(F)n4)cc3[nH]2)CC1 [Compound 33]" measurement=6.66
molecule="O=C(NCc1cc2cc(Cl)c(OCc3cscn3)cc2[nH]1)C1CC1 [Compound 147]" measurement=7.48
molecule="CC1(C(=O)NCc2cc3cc(F)c(OCc4cccc(F)n4)cc3[nH]2)CC1 [Compound 327]" measurement=7.05
molecule="Cc1cc(COc2c(Cl)cc3cc(CNC(=O)C4(C)CC4)[nH]c3c2Cl)no1 [Compound 343]" measurement=5.61

====

biological target: human SLC6A19 and TMEM27 (Homo sapiens, UniProt Q695T7); construct: expressed in transfected cells; experiment: Radiolabelled (3H) leucine uptake in CHO cells with doxycycline-inducible expression of human SLC6A19 and TMEM27 (Example B-1); type: cell-based; settings: CHO cells with doxycycline-inducible expression of human SLC6A19 and TMEM27, read-out: SLC6A19_Radioligand Uptake Assay IC50
endpoint: log10 of IC50 (log10 of the value in nM)

molecule="CC1(C(=O)NCc2cc3c(F)c(F)c(OCc4cscn4)cc3[nH]2)CC1 [Compound 526]" tgt="human SLC6A19 and TMEM27 (Homo sapiens, UniProt Q695T7)" measurement=2.19
molecule="Cc1cc(CCOc2cc3[nH]c(CNC(=O)C4(C)CC4)cc3cc2Cl)no1 [Compound 99]" tgt="human SLC6A19 and TMEM27 (Homo sapiens, UniProt Q695T7)" measurement=2.20
molecule="O=C(NCc1cc2ccc(OCc3ccon3)cc2[nH]1)N1CCCCC1 [Compound 123]" tgt="human SLC6A19 and TMEM27 (Homo sapiens, UniProt Q695T7)" measurement=2.53
molecule="CC(=O)NCc1cc2cc(Cl)c(OCC3CC3(F)F)cc2[nH]1 (centres unmarked) [Compound 458]" tgt="human SLC6A19 and TMEM27 (Homo sapiens, UniProt Q695T7)" measurement=3.88
molecule="CC1(C(=O)NCc2cc3cc(OC(F)(F)F)c(OCc4cscn4)cc3[nH]2)CC1 [Compound 434]" tgt="human SLC6A19 and TMEM27 (Homo sapiens, UniProt Q695T7)" measurement=2.42
